Target: human recombinant histamine H1 receptor (Homo sapiens, UniProt P35367)
Construct: expressed in transfected cells; host or cells: CHO cells
Sequence (P35367 whole entry): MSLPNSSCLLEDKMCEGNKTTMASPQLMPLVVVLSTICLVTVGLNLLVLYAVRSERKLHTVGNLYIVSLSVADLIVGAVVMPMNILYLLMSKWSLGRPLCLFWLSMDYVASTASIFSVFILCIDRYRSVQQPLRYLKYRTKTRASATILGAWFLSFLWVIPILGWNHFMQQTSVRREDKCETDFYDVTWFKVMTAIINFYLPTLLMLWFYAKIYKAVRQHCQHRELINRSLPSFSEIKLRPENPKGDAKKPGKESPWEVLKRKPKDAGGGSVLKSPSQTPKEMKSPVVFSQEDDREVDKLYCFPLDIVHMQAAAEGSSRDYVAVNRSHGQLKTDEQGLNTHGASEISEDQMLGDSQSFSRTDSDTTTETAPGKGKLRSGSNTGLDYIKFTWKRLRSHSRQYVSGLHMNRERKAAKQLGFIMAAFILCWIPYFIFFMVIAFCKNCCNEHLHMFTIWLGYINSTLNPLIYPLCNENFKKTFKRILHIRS
Assay: Histamine H1 radioligand binding ([3H]Pyrilamine)
Conditions: 1 μM; read-out: Binding data (Percentage Inhibition) Histamine Binding (1 μM) H1
# binarize inhibition at 1 µM: threshold 10% inclusive, high side True, low side False

>>> assigned_label("CN1CCc2c(n(CCCC(=O)N3CCCCC3)c3ccc(Cl)cc23)C1")
"True"
>>> assigned_label("COc1ccc(/C(C)=C/n2c3c(c4cc(C)ccc42)CCN(C)C3)cc1F")
"False"
>>> assigned_label("CCC1c2c(c3cc(C)ccc3n2/C=C(\\C)c2ccc(Cl)cc2)CCN1C (stereo not drawn)")
"True"
>>> assigned_label("CC(C)CCN(C)C(=O)Cn1c2c(c3cc(Cl)ccc31)CCN(C)C2")
"False"
>>> assigned_label("CN1CCc2c(n(CC(O)c3ccccc3F)c3ccc(Cl)cc23)C1 (stereo not drawn)")
"True"

###

Target: human recombinant serotonin (5-Hydroxytryptamine) 5-HT7 receptor (Homo sapiens, UniProt P34969)
Construct: expressed in transfected cells; host or cells: CHO cells
Sequence (P34969 whole entry): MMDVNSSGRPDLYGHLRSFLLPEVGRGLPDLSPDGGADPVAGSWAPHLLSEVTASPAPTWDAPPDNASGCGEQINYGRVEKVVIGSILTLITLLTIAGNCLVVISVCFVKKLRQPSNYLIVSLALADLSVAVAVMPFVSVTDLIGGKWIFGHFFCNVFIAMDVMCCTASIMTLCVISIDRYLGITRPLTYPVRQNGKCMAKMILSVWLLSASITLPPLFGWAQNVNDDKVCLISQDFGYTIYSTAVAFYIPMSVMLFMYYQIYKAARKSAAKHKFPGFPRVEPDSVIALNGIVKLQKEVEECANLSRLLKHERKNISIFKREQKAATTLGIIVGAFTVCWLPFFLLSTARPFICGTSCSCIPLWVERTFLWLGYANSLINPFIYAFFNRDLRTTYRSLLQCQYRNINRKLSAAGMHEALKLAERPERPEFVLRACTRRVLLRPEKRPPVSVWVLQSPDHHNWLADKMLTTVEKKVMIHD
Assay: Serotonin 5-HT7 radioligand binding ([3H]LSD)
Settings: 2 h; read-out: Percent Inhibition of ligand binding Serotonin (1 μM ligand concentration) 5-HT7
# binarize inhibition at 1 µM: threshold 80% inclusive, high side criterion met, low side criterion not met

>>> assigned_label("C/C(=C\\n1c2c(c3cc(C)ccc31)CCN(C)C2)c1ccc(Cl)cc1")
"criterion met"
>>> assigned_label("C/C(=C\\n1c2c(c3cc(Cl)ccc31)CCN(C)C2)c1ccc(Cl)c(Cl)c1")
"criterion met"
>>> assigned_label("CCC1c2c(c3cc(Cl)ccc3n2CC(C)(O)c2ccc(F)cc2)CCN1C (stereo not shown)")
"criterion met"
>>> assigned_label("C/C(=C\\n1c2c(c3cc(Cl)ccc31)CCN(C)C2)c1ccc(Cl)cc1")
"criterion met"
>>> assigned_label("CCC1c2c(c3cc(C)ccc3n2/C=C(\\C)c2ccc(Cl)cc2)CCN1C (stereo not shown)")
"criterion met"
>>> assigned_label("C/C(=C\\n1c2c(c3cc(Cl)ccc31)CCN(C)C2C)c1ccc(Cl)c(Cl)c1 (stereo not shown)")
"criterion not met"
>>> assigned_label("CCC1c2c(c3cc(C)ccc3n2/C=C(\\C)c2ccc(Cl)cc2Cl)CCN1C (stereo not shown)")
"criterion not met"
>>> assigned_label("C/C(=C\\n1c2c(c3cc(C)ccc31)CCN(C)C2C)c1ccc(Cl)cc1 (stereo not shown)")
"criterion met"

###

Biological target: human recombinant dopamine D2L receptor (Homo sapiens)
Construct: expressed in transfected cells; host or cells: CHO cells
Sequence (P14416 whole entry): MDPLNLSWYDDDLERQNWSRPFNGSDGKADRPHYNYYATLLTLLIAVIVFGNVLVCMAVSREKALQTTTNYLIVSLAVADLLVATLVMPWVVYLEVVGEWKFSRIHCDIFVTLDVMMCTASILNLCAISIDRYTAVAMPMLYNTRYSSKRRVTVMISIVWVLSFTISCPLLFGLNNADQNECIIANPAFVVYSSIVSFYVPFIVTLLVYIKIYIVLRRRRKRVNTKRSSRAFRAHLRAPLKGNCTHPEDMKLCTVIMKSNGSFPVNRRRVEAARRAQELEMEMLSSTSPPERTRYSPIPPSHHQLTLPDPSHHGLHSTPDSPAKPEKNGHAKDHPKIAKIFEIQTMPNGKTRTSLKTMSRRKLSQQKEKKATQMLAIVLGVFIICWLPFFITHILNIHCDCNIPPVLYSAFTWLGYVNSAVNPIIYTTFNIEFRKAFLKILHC
Assay: Dopamine D2L radioligand binding ([3H]Spiperone)
Conditions: 2 h, 1 μM ligand conc.; read-out: Percent Inhibition of ligand binding Dopamine (1 μM ligand conc.) D2L
Measured property: inhibition at 1 µM

>>> val("Cc1ccc2c(c1)c1c(n2CCC2CCCCC2)CN(C)CC1")
"-7%"
>>> val("C/C(=C\\n1c2c(c3cc(Cl)ccc31)CCN(C)C2)c1ccc(Cl)c(Cl)c1")
"8%"
>>> val("CCC1c2c(c3cc(Cl)ccc3n2C(=O)Cc2ccc(F)cc2)CCN1C (stereo not drawn)")
"5%"
>>> val("COc1ccc(C(O)Cn2c3c(c4cc(C)ccc42)CCN(C)C3)cc1OC (stereo not drawn)")
"9%"
>>> val("C/C(=C/n1c2c(c3cc(C)ccc31)CCN(C)C2C)c1ccccc1F (stereo not drawn)")
"6%"
>>> val("CN1CCc2c(n(CC(=O)N3CCCCC3)c3ccc(Cl)cc23)C1")
"-5%"
>>> val("CCC1c2c(c3cc(C)ccc3n2/C=C(\\C)c2ccc(Cl)cc2)CCN1C (stereo not drawn)")
"-1%"
>>> val("Cc1ccc2c(c1)c1c(n2CCc2ccc(C(F)(F)F)nc2)CN(C)CC1")
"0%"
>>> val("CN1CCc2c(n(CC(=O)N3CCCC3)c3ccc(Cl)cc23)C1")
"-11%"
